Recorded measurements of IC50, one per entry
Test system: Hela cell line
Assay: MTT test of inhibiting tumor cell activity, Hela
Conditions: read-out: Cytotoxic activity (IC50, μM) Hela; Hela cells, MTT, 48 h cultivation
Number only, in µM; omit the unit.

Query: Param readout= IC50; system= Hela cell line; entry= COc1cc(C2c3cc4c(cc3C(Nc3ccc(Cc5ccc(N)cc5)cc3)C3COC(=O)C23)OCO4)cc(OC)c1OC (stereo not drawn) [Compound 5] ; returns value.
Reply: 7.07

Query: How about this compound: COc1cc([C@@H]2c3cc4c(cc3[C@@H](O[C@@H]3O[C@@H]5CO[C@@H](C)O[C@H]5[C@H](O)[C@H]3O)[C@H]3COC(=O)[C@H]23)OCO4)cc(OC)c1O [VP-16, etoposide, reference compound]
Reply: 13.2

Query: How about this compound: COc1ccc(NC2c3cc4c(cc3C(c3cc(OC)c(O)c(OC)c3)C3C(=O)OCC23)OCO4)cc1F (stereo not drawn) [Compound 4]
Reply: 1.97
